Target: T1, recombinant human RANTES (huRANTES, Peprotech) (human, UniProt P13501 24-91)
T1 sequence: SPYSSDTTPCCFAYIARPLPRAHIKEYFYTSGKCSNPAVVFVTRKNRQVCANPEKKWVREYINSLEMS
Experiment: cell-based or functional assay
observable: Chemotaxis IC50 (nM); L1.2 cells expressing hCCR5, 1 nM huRANTES; scFv format
// return numeric value only (unit: nM, not printed)

Q. Quick one: Chemotaxis IC50 (nM); L1.2 cells expressing hCCR5, 1 nM huRANTES; scFv format of E7 scFv (scFv) QVQLVQSGAEVKKPGSSVKVSCKISGGISDNYALSWVRQAPGQGLEWMGAVIPLVETTSYAQRFQGRLTITADDSLNTLYMELGSLRSDDTAMYYCAREQVAVGPGPTSNRGPDGLDVWGRGTMVTVSSQSVLTQPPSVSGAPGQRVTISCTGSSSNIGDGYDVHWYQQLPGTAPKLLIYGNSNRPSGVPDRFSGSTSGTSASLAIRGLQSEDEADYYCGTWDDILNGWVFGGGTKLTVL ?
A. 3.8

Q. Give its Chemotaxis IC50 (nM); L1.2 cells expressing hCCR5, 1 nM huRANTES; scFv format value. Item: C8 scFv (scFv) QVQLVESGGGVVQPGRSLRLSCAASGFTFSSYAMHWVRQAPGKGLEWVAVISYDGSNKYYADSVKGRFTISRDNSKNTLYLQMNSLRAEDTAVYYCARETFPHYYYYYMDVWGRGTLVTVSSSYVLTQPPSVSVAPGQTARITCEGDDTDIGTVNWYQQKPGQAPVLVISEDGYRPSGIPERFSGSNSGNTATLTISRVEAGDEADYYCQFWDVDSDHPVFGGGTQLTVL
A. 90

Q. Entry under review: CG11 scFv (scFv) QVQLVQSGTEVKKPGATVNVSCKISGHLFTDYYIHWVQQAPGKGLEWVGLIDPKDGEIQYAEKFQARVTITADTSTDTVYMELNSLRSEDTAVYYCATEVLSGIRVFPFDPWGQGTLVTVSSQSVLTQPPSVSGAPGQRVTISCTGSSSNIGAGYDVYWYQQFPGKAPKLLIYDTNNRPPGVPDRFSGSKSGTSASLAISGLQTEDEADYYCQSYDIALSNSNVVFGGGTKLTVL . Reported Chemotaxis IC50 (nM); L1.2 cells expressing hCCR5, 1 nM huRANTES; scFv format?
A. 3.6
